Give competition ratio (Antibody B to Antibody A) for every item shown.
Target: T1, recombinant human DLL3 (human, UniProt Q9NYJ7 27-492)
T1 sequence: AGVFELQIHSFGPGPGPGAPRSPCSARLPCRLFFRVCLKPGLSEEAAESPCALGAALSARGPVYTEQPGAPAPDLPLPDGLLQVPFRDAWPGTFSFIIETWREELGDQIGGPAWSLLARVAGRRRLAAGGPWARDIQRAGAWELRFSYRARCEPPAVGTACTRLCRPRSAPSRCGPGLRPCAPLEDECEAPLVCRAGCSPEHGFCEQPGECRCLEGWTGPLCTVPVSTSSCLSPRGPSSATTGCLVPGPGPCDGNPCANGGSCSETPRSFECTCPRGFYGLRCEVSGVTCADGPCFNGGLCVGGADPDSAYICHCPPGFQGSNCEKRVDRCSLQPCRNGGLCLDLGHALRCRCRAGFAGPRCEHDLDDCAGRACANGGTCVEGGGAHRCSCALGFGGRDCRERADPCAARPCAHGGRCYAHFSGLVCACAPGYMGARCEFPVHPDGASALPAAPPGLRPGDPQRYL
Test: Octet binning on SA sensor; Antibody A (biotinylated, loaded first): DL309-SG1; then 20 nM human DLL3, then 80 nM Antibody B
One number for each entry.

{"columns": ["binder", "endpoint_result"],
 "data": [
  ["D30841AE05-SG1 (antibody, human IgG1, kappa, V domains shown, Humanized variant of DLA0841 with SG1 heavy and SK1 light constant regions; Labelled with NHS-PEG4-Biotin when used as the first (immobilized) antibody in the Octet assay) VH: QVQLKESGPALVKPTQTLTLTCTFSGFSLSSSYDMGWVRQAPGQGLEWMGTIYTGDYSTDYASWAKGRVTITADESTSTAYMELSSLRSEDTAVYYCARNTGYGYFGLWGQGTLVTVSS VL: DIQLTQSPSFLSASVGDRVTITCQSTESVYGSDWLSWYQQKPGQPPKLLIYQASNLEIGVPSRFSGSGSGTDFTLTINSLEAEDAATYYCQGYYSGYIYAFGGGTKVEIKR", 0.8],
  ["DL309-SG1 (antibody, human IgG1, kappa, V domains shown, Variable regions of a previously reported anti-DLL3 antibody on SG1/SK1; Also used biotin-labelled as a first antibody) VH: QVQLQQSGGDLMKPGASVKISCKAAGYTFSNYYIEWVKQRPGHGLEWIGEILPGSGSTTYNEKFKGKASFTADTSSNTAYMQLSSLTSEDSAVYYCARWGAREPGFPYWGQGTLVTVSA VL: DIVMTQSQKFMSTSVGDRVSVTCKASQNVGTNVAWYQQKPGQSPKALIYSASYRYSGVPDRFTGSGSGTDFTLTISNVQSEDLAEYFCQQYNNYPLTFGAGTKLELKR", -0.1],
  ["DL306-SG1 (antibody, human IgG1, kappa, V domains shown, Variable regions of a previously reported anti-DLL3 antibody on SG1/SK1; Also used biotin-labelled as a first antibody) VH: EVQLQQSGPELVKPGASVKMSCRASGYTFTDYYMKWVKQSHGKSLEWIGDINPNNGDTFYNQKFKGKATLTIDKSSSTAYMQLNSLTSDDSAVYYCARDGNYAYFDYWGQGTTLTVSS VL: DIVLTQSPASLAVSLGQRATISCRASKSVSTSGYSYMHWYQQKPGQPPKLLIFLASNLESGVPARFSGSGSGTDFTLNIHPVEEEDAATYYCQHSRHLPWTFGGGTKLEIKR", 0.9],
  ["DL312-SG1 (antibody, human IgG1, kappa, V domains shown, Variable regions of a previously reported anti-DLL3 antibody on SG1/SK1; Also used biotin-labelled as a first antibody) VH: EVKLVESGGGLVQPGGSLSLSCAASGFTFTDYYMNWVRQPPGKALEWLALIRNKANGYTTEYNASVKGRFTISRDNSQNILYLQMNALRAEDSATYYCARDSDGYYEYYFDYWGQGTTLTVSS VL: DIQMTQSPSSLSASLGERVSLTCRASQEISDYLSWLQQKPDGTIKRLIFAASTLDSGVPKRFSGSRSGSDFSLSISSLESEDFADYYCLQYASYPYTFGSGTKLEIKR", 1.1]
]}

--- query ---
Ask | # input binder: DLL3-4-SG1 (antibody, human IgG1, kappa, V domains shown, Variable regions of a previously reported anti-DLL3 antibody on SG1/SK1; Used as a second antibody only) VH: QVQLQESGPGLVKPSETLSLTCTVSGGSISSYYWSWIRQPPGKGLEWIGYVYYSGTTNYNPSLKSRVTISVDTSKNQFSLKLSSVTAADTAVYYCASIAVTGFYFDYWGQGTLVTVSS VL: EIVLTQSPGTLSLSPGERVTLSCRASQRVNNNYLAWYQQRPGQAPRLLIYGASSRATGIPDRFSGSGSGTDFTLTISRLEPEDFAVYYCQQYDRSPLTFGGGTKLEIKR ; wanted: its competition ratio (Antibody B to Antibody A)
Reply | 1
